B1: MNAT1 (parent)
chain: LAPIHKLEEALYEYQPLQIETYGP

# Variants of: B1
# assay_summary: protein stability index of a GFP-peptide fusion (GPS, HEK-293T) (PSI 1-6); higher = more stable;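 note: lentivirally expressed fusions sorted by FACS into six bins by GFP to DsRed ratio, PSI derived from sequencing read proportions per bin multiplied by bin number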
# experimental_parameters: c terminus: a fixed tail appended
I'd be grateful if you could share measured protein stability index for these entries.
Give bare numbers.

These recorded examples may help you get a feel for the data.
Y22K :: 2.8
L11D :: 3.71
A2I :: 1.91
T21D :: 2.31
A2C :: 1.68

Would you be so kind as to report protein stability index for each listed record?
1. Y14F
2. P24W
3. Y14D
4. P3M

1. 2.1
2. 1.99
3. 4.2
4. 2.48

Would you be so kind as to report protein stability index for each listed record?
1. L11C
2. Q18Y

1: 2.69; 2: 1.37
